target: UniProt:Q9Y5N5; test: KMT9 thermal shift assay (SyproOrange); format: binding; conditions: 500 µM compound, 2 μM KMT9; read-out: Thermal shift (ΔTm)
Sequence (Q9Y5N5 whole entry): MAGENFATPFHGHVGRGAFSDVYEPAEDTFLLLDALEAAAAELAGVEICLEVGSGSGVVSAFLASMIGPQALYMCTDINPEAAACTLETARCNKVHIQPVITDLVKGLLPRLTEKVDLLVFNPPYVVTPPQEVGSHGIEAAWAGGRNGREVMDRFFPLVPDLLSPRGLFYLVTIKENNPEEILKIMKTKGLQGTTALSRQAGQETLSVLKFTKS
Sequence (Q9UI30 1-120 isoform Q9UI30-2 partner): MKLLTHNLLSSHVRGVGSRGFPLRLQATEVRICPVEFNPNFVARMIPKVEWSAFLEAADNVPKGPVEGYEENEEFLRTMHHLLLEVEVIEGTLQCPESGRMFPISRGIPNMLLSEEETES
Test Readout: ΔTm at 500 µM

// known answers, use as guide
>  <Compound>
CN(CCCNCCc1ccc(F)cc1)C[C@H]1C[C@@H](n2cc(-c3ccn(Cc4ccccc4)n3)c3c(N)nc(Cl)nc32)[C@H](O)[C@@H]1O [Compound 643]

>  <Assayed System>
UniProt:Q9Y5N5

>  <Test Readout>
ΔTm at 500 µM

>  <Measured Value>
> 20 °C

$$$$
>  <Compound>
O[C@@H]1[C@H](O)[C@@H]([C@@H]2CCCNC2)C[C@H]1n1cc(-c2nccs2)c2cncnc21 [Compound 401]

>  <Assayed System>
UniProt:Q9Y5N5

>  <Test Readout>
ΔTm at 500 µM

>  <Measured Value>
≤ 10 °C

$$$$
>  <Compound>
Nc1nc(Cl)nc2c1c(-c1ccccc1)cn2[C@@H]1C[C@H](CNCCCNCCc2cccc(Oc3ccccc3)c2)[C@@H](O)[C@H]1O [Compound 564]

>  <Assayed System>
UniProt:Q9Y5N5

>  <Test Readout>
ΔTm at 500 µM

>  <Measured Value>
> 20 °C

$$$$
>  <Compound>
Nc1nc(Cl)nc2c1ccn2[C@@H]1C[C@H](c2ccc(O)cc2)[C@@H](O)[C@H]1O [Compound 655]

>  <Assayed System>
UniProt:Q9Y5N5

>  <Test Readout>
ΔTm at 500 µM

>  <Measured Value>
10 to 15 °C

$$$$
>  <Compound>
Nc1nc(Cl)nc2c1c(-c1ccn(S(=O)(=O)c3ccccc3)n1)cn2[C@@H]1C[C@H](C2CCN(CCc3ccccc3)CC2)[C@@H](O)[C@H]1O [Compound 519]

>  <Assayed System>
UniProt:Q9Y5N5

>  <Test Readout>
ΔTm at 500 µM

>  <Measured Value>
> 20 °C

$$$$

Request: Given the compound Nc1ncnc2c1ccn2[C@@H]1C[C@H](c2cn[nH]c2)[C@@H](O)[C@H]1O [Compound 658] , what is its reported ΔTm at 500 µM?
Result: ≤ 10 °C
